- STUDY TARGET: GST-Rok-C97-191 (Bacillus subtilis subsp. subtilis str. …, UniProt O34857 97-191)
- Sequence: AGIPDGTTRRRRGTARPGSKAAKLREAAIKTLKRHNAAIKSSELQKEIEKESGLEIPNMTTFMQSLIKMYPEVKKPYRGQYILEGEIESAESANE
- ASSAY: protein binding microarray; Rok is a gene silencer of Bacillus subtilis; high values mean tight binding
- CONDITION INFO: protein: recombinant; tags: GST (pTH5325, pDEST15-Magic modified); dsDNA, one strand shown
Over roughly 33,000 sequences, “e-score” has its median near -0.038; the highest 2% begin near 0.33. Only a selection was taken, and the highest values are over-represented in it overall.
Give Y when the value for binding signal is at least 0.3 E-score. Give N when it is less.

Solved entries:
Reported binding signal at or above 0.3 E-score? `CTAACTAG`
N

# check: binding signal of `AACTAGTC` is greater than or equal to 0.3 E-score
N

Is the recorded value of binding signal equal to or greater than 0.3 E-score for this sequence? `ATCTAGTC`
N

***
Would you say `AGAACTAT` shows binding signal at minimum 0.3 E-score?
N

Given `AACTAGTA` , state whether its binding signal is at least 0.3 E-score.
Y

Hello, I need to know if `CACTAGTG` has measured binding signal not below 0.3 E-score. Thanks!
N
